- System: M14 melanoma
- TEST NAME: NCI-60 one-dose screen, 48 h (100 = growth as untreated, 0 = no growth, -100 = all killed)
- REPORTED CONDITIONS: 10 µM unless noted
This is part of a sample that, as a whole, favours compounds with a hit. Of some 83,000 tested, about 20% had one in any assay.
MEASUREMENT TYPE: growth (%)
Give your result in % as a bare value.

Please review the entries below; each comes with its answer.
INSERT INTO assay_data (molecule, assay_target, test_value) VALUES
  ('CCc1ccccc1-n1[nH]c(C)c(C=N)c1=O', 'M14 melanoma', 109),
  ('CCCCCCCCCCCCCCCCC(=O)O', 'M14 melanoma', 104),
  ('COc1ccc(CCO)cc1', 'M14 melanoma', 103),
  ('Cc1cc(-c2ccc(N=Nc3c(C)nn(-c4ccc(S(=O)(=O)O)cc4)c3O)c(C)c2)ccc1N=Nc1ccc(O)c(C(=O)O)c1', 'M14 melanoma', 107),
  ('Cc1cc(O)c(C(C)C)cc1N=O', 'M14 melanoma', 104),
  ('CCCCC/C(C)=N\NC(N)=S', 'M14 melanoma', 74.5),
  ('Oc1ccc(O)c(-c2ccccc2)c1', 'M14 melanoma', 65.9),
  ('CC(C)(C)OC(=O)CC1(O)CCCCC1', 'M14 melanoma', 108);

## Task Suppose we examine the molecule CSc1nc(N)c(N)c(N)n1 ; what growth value has been reported?
## Result 102

## Task Suppose we examine the molecule Cc1cc2ccccc2c2cc3ccccc3cc12 ; what growth value has been reported?
## Result 85.1

----------
- System: OVCAR-3 ovarian
- TEST NAME: NCI-60 one-dose screen, 48 h
- REPORTED CONDITIONS: 10 µM unless noted
Compounds without any hit were thinned out: in the full panel of roughly 83,000, 20% have a hit. Active and inactive are the calls of the source. How the source made its calls: active means growth percent below 10; inactive means the rest.
Could you please pick one outcome from this set? true (1) (active), false (0) (inactive)

## Task Field: outcome | Entry: CCc1ccc(OC(=O)CCl)cc1
## Result false (0)

## Task Field: outcome | Entry: CC(C)(C)OC(=O)c1ccc(NCc2cc(O)ccc2O)cc1
## Result true (1)

----------
- Tested on: NCI-H322M lung
- TEST NAME: NCI-60 one-dose screen, 48 h (100 = growth as untreated, 0 = no growth, -100 = all killed)
- REPORTED CONDITIONS: 10 µM unless noted
Compounds without any hit were thinned out: in the full panel of roughly 83,000, 20% have a hit. Active and inactive are the calls of the source. Rule for the calls: active = growth percent below 10; inactive = the rest.
MEASUREMENT TYPE: growth

INSERT INTO results (compound, test_value) VALUES
  ('O=C(O)c1ccc2c3ccc(C(=O)O)c4c(C(=O)O)ccc(c5ccc(C(=O)O)c1c25)c43', '100% (inactive)');

Lab note: next compound to report on.
## Task Suppose we examine the compound CC(C)(C)OC(=O)c1ccc(NCc2cc(O)ccc2O)cc1 ; what growth value has been reported?
## Result 84.1% (inactive)

----------
- Test system: SF-539 CNS
- TEST NAME: NCI-60 one-dose screen, 48 h (100 = growth as untreated, 0 = no growth, -100 = all killed)
- REPORTED CONDITIONS: 10 µM unless noted
The panel holds about 83,000 compounds, 20% with a hit somewhere; the sample as a whole holds those more often. Calls of active or inactive are those of the source. The calls were made as follows: active = growth percent below 10; inactive = the rest.
MEASUREMENT TYPE: growth

## Task Suppose we examine the molecule COc1ccc(COC=O)cc1 ; what growth value has been reported?
## Result 105% (inactive)

## Task Suppose we examine the molecule CC(=O)c1cccc(OC(=O)c2ccccc2)c1 ; what growth value has been reported?
## Result 109% (inactive)

## Task Suppose we examine the molecule CCCC(=O)Oc1ccc2ccccc2c1 ; what growth value has been reported?
## Result 98.3% (inactive)

Source of measurements: PubChem BioAssay (NCI)
